subject-of-test: 5HT2B (Homo sapiens)
test-summary: Calcium mobilization assay, 5-HT2B
pEC50: −log10 of the molar value.
observation-type: pEC50

Sure, the documented pEC50 for O=C(NCCN1CCCCC1)N1CCN2C(=O)OC(c3ccccc3)(c3ccccc3)C2C1 (stereo not shown) is < 5.00

====

subject-of-test: APJ (Apelin) (Homo sapiens, UniProt P35414)
Sequence (P35414 1-380): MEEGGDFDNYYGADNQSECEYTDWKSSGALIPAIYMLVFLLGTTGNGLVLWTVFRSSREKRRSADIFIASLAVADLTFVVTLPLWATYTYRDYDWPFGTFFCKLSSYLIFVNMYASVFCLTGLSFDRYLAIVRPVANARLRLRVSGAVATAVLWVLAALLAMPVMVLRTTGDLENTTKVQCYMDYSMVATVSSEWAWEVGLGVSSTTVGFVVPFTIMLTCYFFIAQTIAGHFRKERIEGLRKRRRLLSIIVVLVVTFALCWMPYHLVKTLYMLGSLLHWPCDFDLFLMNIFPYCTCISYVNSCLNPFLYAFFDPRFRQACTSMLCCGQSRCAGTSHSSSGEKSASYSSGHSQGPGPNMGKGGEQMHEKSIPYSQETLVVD
test-summary: Calcium mobilization assay, APJ
Assay type: cell-based
observation-type: IC50

In plain terms, O=C(NCCN1CCCCC1)N1CCN2C(=O)OC(c3ccccc3)(c3ccccc3)C2C1 (stereo not shown) has a documented IC50 of > 10 µM

====

subject-of-test: CB2 (Homo sapiens, UniProt P34972)
Sequence (P34972 whole entry): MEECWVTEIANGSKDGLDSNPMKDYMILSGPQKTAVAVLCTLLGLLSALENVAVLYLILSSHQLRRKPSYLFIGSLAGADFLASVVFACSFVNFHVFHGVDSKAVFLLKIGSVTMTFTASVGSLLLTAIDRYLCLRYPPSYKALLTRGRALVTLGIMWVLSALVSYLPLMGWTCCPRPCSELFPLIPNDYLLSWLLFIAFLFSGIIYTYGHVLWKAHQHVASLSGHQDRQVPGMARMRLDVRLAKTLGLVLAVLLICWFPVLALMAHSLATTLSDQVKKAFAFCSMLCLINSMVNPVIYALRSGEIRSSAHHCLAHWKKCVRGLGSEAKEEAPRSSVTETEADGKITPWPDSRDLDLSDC
test-summary: Calcium mobilization assay, CB2
pIC50: −log10 of the molar value.
observation-type: pIC50

Measured pIC50 (CB2 (Homo sapiens, UniProt P34972)), entry O=C(NCCN1CCCCC1)N1CCN2C(=O)OC(c3ccccc3)(c3ccccc3)C2C1 (stereo not shown) : < 5.00

====

subject-of-test: 5HT2A (Homo sapiens)
Sequence (P28223 whole entry): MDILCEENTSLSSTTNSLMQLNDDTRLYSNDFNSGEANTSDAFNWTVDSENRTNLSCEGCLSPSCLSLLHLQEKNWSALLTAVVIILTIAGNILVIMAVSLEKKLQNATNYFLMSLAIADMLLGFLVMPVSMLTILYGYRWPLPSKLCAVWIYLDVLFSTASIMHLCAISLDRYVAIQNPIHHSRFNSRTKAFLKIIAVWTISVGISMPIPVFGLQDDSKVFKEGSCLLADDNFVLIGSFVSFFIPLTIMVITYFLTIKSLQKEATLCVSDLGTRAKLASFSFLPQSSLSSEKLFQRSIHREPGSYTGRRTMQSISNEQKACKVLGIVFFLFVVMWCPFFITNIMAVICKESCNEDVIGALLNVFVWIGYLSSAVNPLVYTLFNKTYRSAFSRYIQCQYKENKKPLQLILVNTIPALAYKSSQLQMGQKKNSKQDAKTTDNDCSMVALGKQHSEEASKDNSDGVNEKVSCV
test-summary: Calcium mobilization assay, 5-HT2A
pIC50: −log10 of the molar value.
observation-type: pIC50

The compound listed as O=C(NCCN1CCCCC1)N1CCN2C(=O)OC(c3ccccc3)(c3ccccc3)C2C1 (stereo not shown) [RTI-118] shows pIC50 equal to < 5.00

====

subject-of-test: CB1 (Homo sapiens, UniProt P21554)
test-summary: Calcium mobilization assay, CB1
pEC50: −log10 of the molar value.
observation-type: pEC50

Entry O=C(NCCN1CCCCC1)N1CCN2C(=O)OC(c3ccccc3)(c3ccccc3)C2C1 (stereo not shown) [RTI-118] ; pEC50 = < 5.00

====

subject-of-test: 5HT2A (Homo sapiens)
test-summary: Calcium mobilization assay, 5-HT2A
observation-type: EC50

Per the reported 5HT2A (Homo sapiens) data, O=C(NCCN1CCCCC1)N1CCN2C(=O)OC(c3ccccc3)(c3ccccc3)C2C1 (stereo not shown) has EC50 of > 10 µM

====

subject-of-test: kappa opioid receptor (Homo sapiens, UniProt P41145)
Sequence (P41145 whole entry): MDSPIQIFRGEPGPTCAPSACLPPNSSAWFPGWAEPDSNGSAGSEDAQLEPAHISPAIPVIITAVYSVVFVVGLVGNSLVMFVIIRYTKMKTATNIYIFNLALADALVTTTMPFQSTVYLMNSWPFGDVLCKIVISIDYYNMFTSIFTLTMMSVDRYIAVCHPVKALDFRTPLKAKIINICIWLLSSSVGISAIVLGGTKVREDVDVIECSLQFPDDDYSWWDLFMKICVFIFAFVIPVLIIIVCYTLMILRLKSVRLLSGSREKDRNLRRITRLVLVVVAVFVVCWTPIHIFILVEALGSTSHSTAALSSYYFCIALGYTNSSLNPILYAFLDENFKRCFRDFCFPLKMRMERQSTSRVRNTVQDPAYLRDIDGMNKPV
test-summary: Calcium mobilization assay, kappa opioid receptor
observation-type: IC50

Given the molecule O=C(NCCN1CCCCC1)N1CCN2C(=O)OC(c3ccccc3)(c3ccccc3)C2C1 (stereo not shown) [RTI-118] and test system kappa opioid receptor (Homo sapiens, UniProt P41145), the measured IC50 is > 10 µM

====

subject-of-test: CaV 3.2 (Homo sapiens, UniProt O95180)
Sequence (O95180 whole entry): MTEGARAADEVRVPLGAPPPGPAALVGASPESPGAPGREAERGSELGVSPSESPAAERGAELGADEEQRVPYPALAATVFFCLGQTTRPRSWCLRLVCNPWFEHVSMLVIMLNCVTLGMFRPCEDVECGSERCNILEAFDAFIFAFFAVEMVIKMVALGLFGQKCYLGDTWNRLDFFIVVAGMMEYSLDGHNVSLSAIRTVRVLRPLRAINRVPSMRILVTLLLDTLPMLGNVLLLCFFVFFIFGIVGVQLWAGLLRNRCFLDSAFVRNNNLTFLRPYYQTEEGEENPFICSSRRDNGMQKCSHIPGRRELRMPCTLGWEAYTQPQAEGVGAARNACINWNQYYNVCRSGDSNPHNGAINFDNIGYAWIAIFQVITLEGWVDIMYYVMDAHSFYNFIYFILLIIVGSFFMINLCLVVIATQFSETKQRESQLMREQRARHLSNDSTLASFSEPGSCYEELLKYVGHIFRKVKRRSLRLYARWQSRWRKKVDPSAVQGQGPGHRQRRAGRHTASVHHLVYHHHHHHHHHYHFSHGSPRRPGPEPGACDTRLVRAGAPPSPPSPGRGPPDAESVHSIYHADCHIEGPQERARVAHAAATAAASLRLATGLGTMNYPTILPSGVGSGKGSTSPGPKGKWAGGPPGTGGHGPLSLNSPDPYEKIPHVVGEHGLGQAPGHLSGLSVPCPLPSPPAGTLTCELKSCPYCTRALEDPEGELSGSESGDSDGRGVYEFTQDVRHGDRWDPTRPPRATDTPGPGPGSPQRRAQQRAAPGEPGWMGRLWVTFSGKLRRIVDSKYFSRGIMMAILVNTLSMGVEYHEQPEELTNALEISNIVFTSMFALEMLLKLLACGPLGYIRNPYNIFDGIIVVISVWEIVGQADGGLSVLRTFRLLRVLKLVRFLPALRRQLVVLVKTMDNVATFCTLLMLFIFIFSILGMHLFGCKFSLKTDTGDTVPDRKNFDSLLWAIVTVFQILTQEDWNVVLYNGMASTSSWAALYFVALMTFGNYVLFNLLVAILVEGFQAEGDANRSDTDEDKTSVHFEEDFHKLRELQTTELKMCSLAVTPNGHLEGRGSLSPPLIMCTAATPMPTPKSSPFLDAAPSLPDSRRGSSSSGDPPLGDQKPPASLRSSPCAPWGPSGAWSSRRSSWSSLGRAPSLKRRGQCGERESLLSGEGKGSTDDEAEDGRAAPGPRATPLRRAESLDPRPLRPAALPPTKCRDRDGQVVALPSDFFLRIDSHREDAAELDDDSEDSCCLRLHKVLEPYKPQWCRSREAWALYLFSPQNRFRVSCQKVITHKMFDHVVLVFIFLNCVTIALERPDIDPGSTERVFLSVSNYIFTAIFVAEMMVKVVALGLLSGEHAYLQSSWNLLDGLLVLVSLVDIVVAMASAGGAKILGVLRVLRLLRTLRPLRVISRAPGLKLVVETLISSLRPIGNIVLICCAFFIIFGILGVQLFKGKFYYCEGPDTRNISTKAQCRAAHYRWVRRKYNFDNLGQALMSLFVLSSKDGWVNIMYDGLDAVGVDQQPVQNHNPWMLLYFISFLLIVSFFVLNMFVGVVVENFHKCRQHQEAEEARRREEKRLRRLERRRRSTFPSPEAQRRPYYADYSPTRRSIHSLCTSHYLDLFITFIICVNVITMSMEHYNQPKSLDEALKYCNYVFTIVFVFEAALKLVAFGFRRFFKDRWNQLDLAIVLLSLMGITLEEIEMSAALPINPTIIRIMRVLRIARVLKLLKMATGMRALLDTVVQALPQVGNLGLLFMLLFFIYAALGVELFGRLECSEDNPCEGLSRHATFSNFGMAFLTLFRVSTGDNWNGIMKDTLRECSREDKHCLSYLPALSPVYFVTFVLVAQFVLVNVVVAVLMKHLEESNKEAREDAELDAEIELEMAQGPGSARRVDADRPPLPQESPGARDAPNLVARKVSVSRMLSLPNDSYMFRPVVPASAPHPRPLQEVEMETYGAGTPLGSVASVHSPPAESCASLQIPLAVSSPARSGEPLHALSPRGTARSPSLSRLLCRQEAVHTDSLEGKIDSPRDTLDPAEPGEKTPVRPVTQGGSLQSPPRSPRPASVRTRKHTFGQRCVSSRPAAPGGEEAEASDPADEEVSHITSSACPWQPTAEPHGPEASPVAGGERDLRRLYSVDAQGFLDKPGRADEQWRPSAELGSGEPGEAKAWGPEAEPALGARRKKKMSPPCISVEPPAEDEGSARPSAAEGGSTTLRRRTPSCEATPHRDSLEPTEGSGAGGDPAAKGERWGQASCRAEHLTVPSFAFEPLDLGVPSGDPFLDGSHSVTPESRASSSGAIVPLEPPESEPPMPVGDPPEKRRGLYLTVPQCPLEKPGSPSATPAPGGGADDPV
test-summary: Calcium voltage channel 3.2 calcium mobilization assay
Type: cell-based
observation-type: IC50

The molecule O=C(NCCN1CCCCC1)N1CCN2C(=O)OC(c3ccccc3)(c3ccccc3)C2C1 (stereo not shown) , tested on CaV 3.2 (Homo sapiens, UniProt O95180), showed IC50 of > 10 µM

====

subject-of-test: delta opioid receptor (Homo sapiens)
Sequence (P41143 whole entry): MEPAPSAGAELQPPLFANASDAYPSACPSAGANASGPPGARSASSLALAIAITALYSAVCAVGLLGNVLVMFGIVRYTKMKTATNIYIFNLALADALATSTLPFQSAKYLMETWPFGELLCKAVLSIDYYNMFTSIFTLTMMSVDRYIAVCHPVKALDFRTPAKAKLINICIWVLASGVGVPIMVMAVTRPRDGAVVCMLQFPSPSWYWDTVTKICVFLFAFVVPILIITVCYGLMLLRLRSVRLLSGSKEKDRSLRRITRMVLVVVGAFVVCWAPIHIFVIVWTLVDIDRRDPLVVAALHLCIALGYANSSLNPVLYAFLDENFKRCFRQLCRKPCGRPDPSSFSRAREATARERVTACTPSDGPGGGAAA
test-summary: Calcium mobilization assay, delta opioid receptor
Type: cell-based
pEC50: −log10 of the molar value.
observation-type: pEC50

# pEC50 of O=C(NCCN1CCCCC1)N1CCN2C(=O)OC(c3ccccc3)(c3ccccc3)C2C1 (stereo not shown) = < 5.00

====

subject-of-test: delta opioid receptor (Homo sapiens)
test-summary: Calcium mobilization assay, delta opioid receptor
pIC50: −log10 of the molar value.
observation-type: pIC50

Reported pIC50 (delta opioid receptor (Homo sapiens)) for entry O=C(NCCN1CCCCC1)N1CCN2C(=O)OC(c3ccccc3)(c3ccccc3)C2C1 (stereo not shown) [RTI-118] is < 5.00

====

subject-of-test: hTAAR1 (Homo sapiens)
Sequence (Q96RJ0 1-339): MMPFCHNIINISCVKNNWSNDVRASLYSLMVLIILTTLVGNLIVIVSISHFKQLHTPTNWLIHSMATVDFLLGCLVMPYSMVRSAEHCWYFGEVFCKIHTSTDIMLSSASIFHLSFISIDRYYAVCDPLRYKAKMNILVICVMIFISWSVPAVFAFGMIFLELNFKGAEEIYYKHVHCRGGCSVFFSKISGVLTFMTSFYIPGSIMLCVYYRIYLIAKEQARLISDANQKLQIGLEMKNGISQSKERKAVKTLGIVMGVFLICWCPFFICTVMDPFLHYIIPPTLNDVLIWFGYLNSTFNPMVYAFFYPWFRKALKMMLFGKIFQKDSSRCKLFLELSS
test-summary: hTAAR1 cAMP assay
pEC50: −log10 of the molar value.
observation-type: pEC50

Briefly, pEC50 measured for O=C(NCCN1CCCCC1)N1CCN2C(=O)OC(c3ccccc3)(c3ccccc3)C2C1 (stereo not shown) : < 5.00

====

subject-of-test: mu opioid receptor (Homo sapiens)
test-summary: Calcium mobilization assay, mu opioid receptor
Format: cell-based
pEC50: −log10 of the molar value.
observation-type: pEC50

Record summary for O=C(NCCN1CCCCC1)N1CCN2C(=O)OC(c3ccccc3)(c3ccccc3)C2C1 (stereo not shown) : reported pEC50 = < 5.00

====

subject-of-test: UniProtKB P35372
test-summary: Calcium mobilization assay, mu opioid receptor
observation-type: IC50

The molecule O=C(NCCN1CCCCC1)N1CCN2C(=O)OC(c3ccccc3)(c3ccccc3)C2C1 (stereo not shown) showed IC50 equal to > 10 µM

====

subject-of-test: 5HT1A (Homo sapiens)
Sequence (P08908 whole entry): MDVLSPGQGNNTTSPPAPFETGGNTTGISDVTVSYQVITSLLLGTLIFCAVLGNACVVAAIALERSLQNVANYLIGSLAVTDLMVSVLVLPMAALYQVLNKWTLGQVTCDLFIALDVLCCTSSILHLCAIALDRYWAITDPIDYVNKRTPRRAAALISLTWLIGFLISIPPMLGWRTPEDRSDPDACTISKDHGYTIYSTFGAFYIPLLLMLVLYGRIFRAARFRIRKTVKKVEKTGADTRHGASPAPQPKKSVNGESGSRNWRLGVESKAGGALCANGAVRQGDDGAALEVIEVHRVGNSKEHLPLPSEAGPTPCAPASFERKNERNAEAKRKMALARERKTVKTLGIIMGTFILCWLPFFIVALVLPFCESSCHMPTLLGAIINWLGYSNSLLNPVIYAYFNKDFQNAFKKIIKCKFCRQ
test-summary: Calcium mobilization assay, 5-HT1A
pIC50: −log10 of the molar value.
observation-type: pIC50

pIC50 recorded for this molecule, O=C(NCCN1CCCCC1)N1CCN2C(=O)OC(c3ccccc3)(c3ccccc3)C2C1 (stereo not shown) , is < 5.00

====

subject-of-test: 5HT2B (Homo sapiens, UniProt P41595)
Sequence (P41595 whole entry): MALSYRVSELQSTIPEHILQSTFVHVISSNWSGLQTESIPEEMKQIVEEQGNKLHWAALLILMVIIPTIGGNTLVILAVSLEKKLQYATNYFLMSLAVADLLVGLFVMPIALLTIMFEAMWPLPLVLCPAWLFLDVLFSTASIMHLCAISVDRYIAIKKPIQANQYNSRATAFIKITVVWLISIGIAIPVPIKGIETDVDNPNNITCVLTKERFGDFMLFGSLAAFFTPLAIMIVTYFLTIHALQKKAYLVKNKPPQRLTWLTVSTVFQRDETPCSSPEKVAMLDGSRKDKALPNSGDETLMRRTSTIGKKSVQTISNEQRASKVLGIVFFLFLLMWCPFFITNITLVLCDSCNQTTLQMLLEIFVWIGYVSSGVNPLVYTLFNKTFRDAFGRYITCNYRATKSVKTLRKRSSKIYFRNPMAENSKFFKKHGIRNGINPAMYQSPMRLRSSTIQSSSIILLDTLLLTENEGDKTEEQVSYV
test-summary: Calcium mobilization assay, 5-HT2B
observation-type: IC50

compound O=C(NCCN1CCCCC1)N1CCN2C(=O)OC(c3ccccc3)(c3ccccc3)C2C1 (stereo not shown) [RTI-118] , IC50 observed: > 10 µM

====

subject-of-test: UniProtKB Q8NER1
test-summary: Calcium mobilization assay, TRPV1
observation-type: IC50

The observed IC50 for O=C(NCCN1CCCCC1)N1CCN2C(=O)OC(c3ccccc3)(c3ccccc3)C2C1 (stereo not shown) when tested with UniProtKB Q8NER1 stands at > 10 µM

Cited source: paper PMC4259821
